System: HCT-15 colon
assay: NCI tumour cell line growth inhibition, 48 h; in the data active = GI50 below about 0.43 µM; inactive = the rest
Lab note: assign the record to one of y = active, n = inactive

molecule	assigned label
Cc1ccc(-c2cc3c(SCC(=O)Nc4cc(C(F)(F)F)ccc4Cl)nccn3n2)cc1	n

q: What classification did CCCC(=O)NC1CCc2cc(OC)c(OC)c(OC)c2-c2ccc(OC)c(=O)cc21 (stereo unspecified) end up with in this test?
a: y

q: # fetch the recorded call for `O=C1c2ccccc2S(=O)(=O)N1CSC(=S)N1CCCCC1` here
a: n

q: Fill in: this test's call for `CCCCCCCCN(CCCCCCCC)CCCCCCNc1cc(OC)cc2cccnc12` is ___
a: n

q: // param item: CCN1C(=O)N(CC)C2Nn3c(s/c(=C\c4ccccc4Br)c3=O)=NC21 (stereo unspecified) ; yields the recorded call
a: n

q: How did this test come out for `C/C(=C\CCc1ccoc1)CC/C=C(\C)CCCN1CCOCC1` ?
a: n
